Listed here are compounds together with their documented k(IAM) retention factor.
Assay method text: HPLC on IAM (immobilized artificial membrane) column, retention factor
Format: physicochemical
Measurement setup: IAM.PC.DD.2 column; 10 mM phosphate buffer pH 7.4:acetonitrile 80:20

Compound	k(IAM) retention factor
CNCCc1ccccn1 [betahistine]	0.90
COC(=O)c1ccc(O)cc1 [methyl paraben]	1.94
CC(C)c1nc(N(C)S(C)(=O)=O)nc(-c2ccc(F)cc2)c1/C=C/[C@@H](O)C[C@@H](O)CC(=O)O [rosuvastatin]	0.96
CN1C(=O)CC(=O)N(c2ccccc2)c2cc(Cl)ccc21 [clobazam]	2.58
CCOC(=O)[C@H](CCc1ccccc1)N[C@@H](C)C(=O)N1CCC[C@H]1C(=O)O [enalapril]	0.05
CC(C)C[C@H]1C(=O)N2CCC[C@H]2[C@]2(O)O[C@](NC(=O)[C@@H]3C=C4c5cccc6[nH]c(Br)c(c56)C[C@H]4N(C)C3)(C(C)C)C(=O)N12 [bromocriptine]	12.69
CC(C)NCC(O)COc1cccc2ccccc12 (stereo not shown) [propranolol]	28.09
CN1C(=O)C(O)N=C(c2ccccc2)c2cc(Cl)ccc21 (stereo not shown) [temazepam]	6.74
CN/C(=N/CCSCc1nc[nH]c1C)NC#N [cimetidine]	0.26
Cc1nc2n(c(=O)c1CCN1CCC(c3noc4cc(F)ccc34)CC1)CCCC2 [risperidone]	4.83
CN(C)CCc1c[nH]c2ccc(C[C@H]3COC(=O)N3)cc12 [zolmitriptane]	3.30
CN[C@H]1CC[C@@H](c2ccc(Cl)c(Cl)c2)c2ccccc21 [sertraline]	42.89
CC(C)NCC(O)COc1ccc(COCCOC(C)C)cc1 (stereo not shown) [bisoprolol]	6.74
OCCN1CCN(CCC=C2c3ccccc3Sc3ccc(C(F)(F)F)cc32)CC1 [flupenthixol]	51.21
Cc1ccc(-c2nc3ccc(C)cn3c2CC(=O)N(C)C)cc1 [zolpidem]	2.60
CN(C)C(=N)N=C(N)N [metformin]	0.34
CCCC(CCC)C(=O)O [valproic acid]	0.08
O=C(CCCN1CCC(O)(c2ccc(Cl)cc2)CC1)c1ccc(F)cc1 [haloperidol]	23.74
CC(=O)OCC(=O)[C@@]1(O)CC[C@H]2[C@@H]3CCC4=CC(=O)CC[C@]4(C)[C@H]3[C@@H](O)C[C@@]21C [hydrocortisone acetate]	2.82
